These entries and their values trace back to patent US8541427B2.

- Target entity: CYP2C9 (Homo sapiens (Human), UniProt P11712)
- Sequence (P11712 whole entry): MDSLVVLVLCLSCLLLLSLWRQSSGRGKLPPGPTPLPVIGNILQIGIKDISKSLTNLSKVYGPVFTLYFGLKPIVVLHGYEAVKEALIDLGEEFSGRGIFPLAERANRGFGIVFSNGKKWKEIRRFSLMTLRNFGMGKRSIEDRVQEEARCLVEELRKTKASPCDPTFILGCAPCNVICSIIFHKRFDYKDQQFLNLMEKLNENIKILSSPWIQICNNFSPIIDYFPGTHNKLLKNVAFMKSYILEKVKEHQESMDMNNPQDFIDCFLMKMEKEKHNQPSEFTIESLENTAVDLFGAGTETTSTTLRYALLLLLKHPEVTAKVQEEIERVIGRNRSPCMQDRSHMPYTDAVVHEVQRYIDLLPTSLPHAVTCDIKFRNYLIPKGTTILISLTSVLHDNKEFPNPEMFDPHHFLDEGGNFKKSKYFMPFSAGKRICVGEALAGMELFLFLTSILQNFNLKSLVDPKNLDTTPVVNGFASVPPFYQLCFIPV
- Method summary: CYP Inhibition Assay, CYP2C9;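 also: probe substrate held close to its Km, with metabolite formation quantified by LC-MS/MS against a calibration curve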
- Assay type: in vitro ADME
- Settings: human liver microsomes, co-incubation; read-out: CYP 2C9 IC50 co
pIC50: −log10 of the molar value.

Compound | Target entity | pIC50
COc1nc(N2C[C@H]3C(=O)N(C)C(=N)N[C@@]3(c3cc(F)ccc3F)C2)nc(C2CC2)c1F [Example 34] | CYP2C9 (Homo sapiens (Human), UniProt P11712) | < 4.70
COc1nc(N2C[C@H]3C(=O)N(C)C(=N)N[C@@]3(c3ccc(F)cc3Cl)C2)nc(C)c1F [Example 20] | CYP2C9 (Homo sapiens (Human), UniProt P11712) | 5.12
Cc1nc(N2C[C@H]3C(=O)N(C)C(=N)N[C@@]3(c3ccc(F)cc3)C2)nc(C)c1F [Example 28] | CYP2C9 (Homo sapiens (Human), UniProt P11712) | < 4.52
CCc1nc(N2C[C@H]3C(=O)N(C)C(=N)N[C@@]3(c3cc(F)ccc3F)C2)nc(OC)c1F [Example 31] | CYP2C9 (Homo sapiens (Human), UniProt P11712) | < 4.70
CCc1nc(N2C[C@H]3C(=O)N(C)C(=N)N[C@@]3(c3cc(F)c(F)cc3F)C2)nc(OC)c1F [Example 22] | CYP2C9 (Homo sapiens (Human), UniProt P11712) | ~4.70
COc1nc(N2C[C@H]3C(=O)N(C)C(=N)N[C@@]3(c3ccc(F)cc3)C2)nc(C2CC2)c1F [Example 21] | CYP2C9 (Homo sapiens (Human), UniProt P11712) | < 4.70
COc1nc(N2C[C@H]3C(=O)N(C)C(=N)N[C@@]3(c3ccc(F)cc3F)C2)nc(OC)c1F [Example 10] | CYP2C9 (Homo sapiens (Human), UniProt P11712) | < 4.52
COc1nc(N2C[C@H]3C(=O)N(C)C(=N)N[C@@]3(c3cccc(C#N)c3)C2)nc(C)c1F [Example 36] | CYP2C9 (Homo sapiens (Human), UniProt P11712) | < 4.70
COc1nc(N2C[C@H]3C(=O)N(C)C(=N)N[C@@]3(c3ccc(F)cc3)C2)nc(OC)c1F [Example 27] | CYP2C9 (Homo sapiens (Human), UniProt P11712) | < 4.52
COc1nc(N2C[C@H]3C(=O)N(C)C(N)=N[C@@]3(c3c(F)cc(F)c(F)c3F)C2)nc(C)c1F [Example 29] | CYP2C9 (Homo sapiens (Human), UniProt P11712) | < 4.52
COc1nc(N2C[C@H]3C(=O)N(C)C(=N)N[C@@]3(c3ccc(F)c(Cl)c3F)C2)nc(C)c1F (racemic) [39 racemic] | CYP2C9 (Homo sapiens (Human), UniProt P11712) | < 4.70
CCc1nc(N2C[C@H]3C(=O)N(C)C(=N)N[C@@]3(c3ccccc3)C2)nc(OC)c1F (racemic) [6 racemic] | CYP2C9 (Homo sapiens (Human), UniProt P11712) | < 4.52
Cc1nc(N2C[C@H]3C(=O)N(C)C(N)=N[C@@]3(c3ccccc3)C2)nc(C)c1F (racemic) [23 racemic] | CYP2C9 (Homo sapiens (Human), UniProt P11712) | < 4.52
Cc1nc(N2C[C@H]3C(=O)N(C)C(=N)N[C@@]3(c3cccc(C#N)c3)C2)nc(C2CC2)c1F [Example 14] | CYP2C9 (Homo sapiens (Human), UniProt P11712) | < 4.70
Cc1nc(N2C[C@H]3C(=O)N(C)C(N)=N[C@@]3(c3ccccc3)C2)nc(C2CC2)c1F (racemic) [25 racemic] | CYP2C9 (Homo sapiens (Human), UniProt P11712) | < 4.70
